Measured parasite growth, % of DMSO control of individual entries
Assay protocol: qHTS profiling of the MIPE4 collection as inhibitors of Plasmodium falciparum (3D7) proliferation (AID 743344);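 also: scaled between DMSO vehicle wells and 0.29 µM artemisinin as full inhibition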
Condition parameters: P. falciparum 3D7 in erythrocytes, SYBR Green DNA fluorescence, 72 h; at 28.5 µM unless noted
Express the result in % but write the number alone.

Recorded results for 4 compounds are shown here.
Compound: COc1cccc2c1CCCC2CCCN1CCN(C2CCCCC2)CC1 (centres undefined)
Unit spec: %
parasite growth, % of DMSO control: 6.86
//
Compound: Cc1ccc(C(C)(O)c2nc3ccccc3s2)c(C)c1 (centres undefined)
Unit spec: %
parasite growth, % of DMSO control: 61.8
//
Compound: Nc1ncnc2c1nc(Cl)n2[C@@H]1O[C@H](CO)[C@@H](O)[C@@H]1O
Unit spec: %
parasite growth, % of DMSO control: 187
//
Compound: O=C(O)C=Cc1ccc(O)c(O)c1
Unit spec: %
parasite growth, % of DMSO control: 53.1

Given item COc1cc(N2CCC(N3CCN(C)CC3)CC2)ccc1Nc1ncc(Cl)c(Nc2ccccc2S(=O)(=O)C(C)C)n1 , the value recorded as its parasite growth, % of DMSO control is 3.8

Given item CC[C@@]1(O)C[C@H](O[C@H]2C[C@H](N(C)C)[C@H](O[C@H]3C[C@H](O)[C@H](O[C@H]4CCC(=O)[C@H](C)O4)[C@H](C)O3)[C@H](C)O2)c2c(cc3c(c2O)C(=O)c2c(O)cccc2C3=O)[C@@H]1C(=O)OC , the value recorded as its parasite growth, % of DMSO control is 3.31

Given item Clc1cc(Cl)cc(CNc2ncncc2-c2ccc3c(c2)OCO3)c1 , the value recorded as its parasite growth, % of DMSO control is 18.8

Given item COCCOc1nc(-c2ccc(Cl)c(Cl)c2)n(-c2ccc(NC(=O)CCl)cc2)n1 , the value recorded as its parasite growth, % of DMSO control is 20.8

Given item NC(=O)c1ccc2nc(-c3ccc(Oc4ccc(Cl)cc4)cc3)[nH]c2c1 , the value recorded as its parasite growth, % of DMSO control is 48.1

Data credit: PubChem BioAssay (NCATS)
